Assay remarks: qHTS for Inhibitors of the Functional Ribonucleoprotein Complex (vRNP) of Lymphocytic Choriomeningitis Arenaviruses (LCMV): Viability assay - alamar blue signal for LCMV Primary Screen (AID 1347085); further: nearly all actives have a fitted effect of over 80% in size
Settings: alamar blue viability counter-screen, LCMV vRNP screen cells; series mostly up to 57.5 µM
Records with an inconclusive call do not appear. The source made the active and inactive calls. The call rests on the fitted dose curve; tested in HEK293 reporter line.
Classes used: active, inactive

Compound: Oc1cc2c(cc1O)C1c3ccc(O)c(O)c3OCC1(O)C2 (centres undefined)
Label value: inactive
--
Compound: COc1cc([C@@H]2c3cc4c(cc3[C@@H](O[C@@H]3O[C@@H]5CO[C@@H](C)O[C@@H]5[C@H](O)[C@@H]3O)[C@H]3COC(=O)[C@H]23)OCO4)cc(OC)c1O
Label value: active
--
Compound: CCN1C[C@@]2(COC)CCC(OC)[C@]34C5C[C@]6(O)[C@@H](OC)C[C@](OC(C)=O)(C([C@H](OC)C23)[C@H]14)C5[C@H]6OC(=O)c1ccc(OC)cc1 (some centres undefined)
Label value: inactive
--
Compound: C[C@@H]1CCN(C(=O)CC#N)C[C@H]1N(C)c1ncnc2[nH]ccc12
Label value: inactive
